Reported CC50 at 72 h values are given for each entry in this list.
- test: MTT cell proliferation assay (cytotoxicity), HepG2
- Type: cell-based
- stated_conditions: human, HepG2 cells, 72 h incubation, read-out: LC50, HepG2
Use µM as the unit, but write only the number.

Previously resolved entries follow.
O=C(N[C@H]1C(=O)N(c2ccc(F)cc2)[C@@H]1c1ccc(O)cc1)c1ccc(F)cc1    71.9
O=C(/C=C/c1ccc(F)cc1)N[C@H]1C(=O)N(c2ccc(F)cc2)[C@@H]1c1ccc(O)cc1    57.5
O=C1[C@H](CC[C@H](O)c2ccc(F)cc2)[C@@H](c2ccc(O)cc2)N1c1ccc(F)cc1 [Compound 1, Ezetimibe, reference compound]    69.7
O=C(N[C@H]1C(=O)N(c2ccc(F)cc2)[C@@H]1c1ccc(O)cc1)c1ccccc1    67.6

Problem: Dear colleague, I am looking for the recorded CC50 at 72 h of the following compound: O=C(/C=C/c1ccccc1)N[C@H]1C(=O)N(c2ccc(F)cc2)[C@@H]1c1ccc(O)cc1
Result: 63.3

====

- test: MTT cell proliferation assay (cytotoxicity), MDCKIIwt
- Assay type: cell-based
- stated_conditions: dog, MDCKII wild-type cells, 72 h incubation, read-out: LC50, MDCKII
outcome_measure: CC50 at 72 h

Problem: Dear colleague, I am looking for the recorded CC50 at 72 h of the following compound: O=C1[C@H](CC[C@H](O)c2ccc(F)cc2)[C@@H](c2ccc(O)cc2)N1c1ccc(F)cc1 [Compound 1, Ezetimibe, reference compound]
Result: > 100 µM

Problem: Dear colleague, I am looking for the recorded CC50 at 72 h of the following compound: O=C(N[C@H]1C(=O)N(c2ccc(F)cc2)[C@@H]1c1ccc(O)cc1)c1ccccc1 [Compound 5e]
Result: 91.2 µM

Problem: Dear colleague, I am looking for the recorded CC50 at 72 h of the following compound: O=C(/C=C/c1ccc(F)cc1)N[C@H]1C(=O)N(c2ccc(F)cc2)[C@@H]1c1ccc(O)cc1 [Compound 5b]
Result: 64 µM

Problem: Dear colleague, I am looking for the recorded CC50 at 72 h of the following compound: O=C(Cc1ccccc1)N[C@H]1C(=O)N(c2ccc(F)cc2)[C@@H]1c1ccc(O)cc1 [Compound 5c]
Result: > 100 µM

Problem: Dear colleague, I am looking for the recorded CC50 at 72 h of the following compound: O=C(Cc1ccc(F)cc1)N[C@H]1C(=O)N(c2ccc(F)cc2)[C@@H]1c1ccc(O)cc1 [Compound 5d]
Result: > 100 µM

Problem: Dear colleague, I am looking for the recorded CC50 at 72 h of the following compound: O=C(/C=C/c1ccccc1)N[C@H]1C(=O)N(c2ccc(F)cc2)[C@@H]1c1ccc(O)cc1 [Compound 5a]
Result: 66.5 µM

Problem: Dear colleague, I am looking for the recorded CC50 at 72 h of the following compound: O=C(N[C@H]1C(=O)N(c2ccc(F)cc2)[C@@H]1c1ccc(O)cc1)c1ccc(F)cc1 [Compound 5f]
Result: 78.6 µM

====

- test: in vitro
- stated_conditions: dog, MDCKII cells stably expressing human NPC1L1 (hNPC1L1/MDCKII)
outcome_measure: CC50 at 72 h (µM)
Use µM as the unit, but write only the number.

O=C1[C@H](CC[C@H](O)c2ccc(F)cc2)[C@@H](c2ccc(O)cc2)N1c1ccc(F)cc1 [Compound 1, Ezetimibe, reference compound]    62.3
O=C(N[C@H]1C(=O)N(c2ccc(F)cc2)[C@@H]1c1ccc(O)cc1)c1ccc(F)cc1    64.7

Problem: Dear colleague, I am looking for the recorded CC50 at 72 h of the following compound: O=C(N[C@H]1C(=O)N(c2ccc(F)cc2)[C@@H]1c1ccc(O)cc1)c1ccccc1
Result: 68.3

Problem: Dear colleague, I am looking for the recorded CC50 at 72 h of the following compound: O=C(/C=C/c1ccccc1)N[C@H]1C(=O)N(c2ccc(F)cc2)[C@@H]1c1ccc(O)cc1
Result: 65.1

====

- test: in vitro
- stated_conditions: dog
outcome_measure: CC50 at 72 h (µM)
Use µM as the unit, but write only the number.

Problem: Dear colleague, I am looking for the recorded CC50 at 72 h of the following compound: O=C(/C=C/c1ccc(F)cc1)N[C@H]1C(=O)N(c2ccc(F)cc2)[C@@H]1c1ccc(O)cc1
Result: 63.3
